Data origin: patent US20220073643A1

Here, each record is paired with measured CDC % Relative activity data.
Experimental system: human Claudin18.2 (human)
Assay info: cell-based or functional assay
Attribute measured: CDC % Relative activity (%)

- Binder: "248E6A7 (antibody, V domains shown) VH: QAYLQQSGAELVRSGASVKMSCRASGYTFTSHNMHWVKQTPGQGLEWIGYIYPGNGNTYYNQKFKVKATLTADTSSNTAYMQINSLTSEDSAVYFCVRDYYGNSFVYWGQGTLVTVSA VL: DVVMTQSPSSLTEKTGEKVTMTCKSSQSLLNSGNQKNYLAWYQQKPGQPPKLLIYWASTRESGVPDRFIGSGSGTDFTLTISSLQTEDLAVYYCQNNYMYPFTFGAGTKLELK"
  Attribute measured: "CDC % Relative activity"
  Unit spec: "%"
  Readout value: 161
- Binder: "194A2F7 (antibody, V domains shown) VH: QIQLVQSGPELKKPGETVKISCKASGYTFTDYLIHWVKQAPGKGLKWMGWINTETGEPTYADDFKGRFALSLETSASTACLQINNLKNEDTATYFCARIYYGNSFDYWGQGTTLTVSS VL: DIVMTQSPSSLPVTAGEKVTMTCKSSQNLLNSGNQKSYLTWYQQKPGQPPKLLIYWASTRETGVPDRFTGSGSGTDFTLTISSVQAEDLAVYYCQNAYRFPFTFGAGTRLELK"
  Attribute measured: "CDC % Relative activity"
  Unit spec: "%"
  Readout value: 51.7
- Binder: "273C10E5 (antibody, V domains shown) VH: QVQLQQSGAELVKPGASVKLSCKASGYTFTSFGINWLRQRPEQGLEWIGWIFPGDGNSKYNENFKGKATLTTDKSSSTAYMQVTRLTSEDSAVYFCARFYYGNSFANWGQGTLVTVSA VL: DIVMTQSPSSLTVTAGEKVTMSCKSSQSLLNSGNQKNYLTWYQQKPGQPPKLLIYWAATRESGVPDRFAGSGSGTDFTLTISSVQAEDLAVYYCQNDYFYPFTFGAGTKLELK"
  Attribute measured: "CDC % Relative activity"
  Unit spec: "%"
  Readout value: 67.6
- Binder: "252C10F6 (antibody, V domains shown) VH: QVHLKQSGRGLVQPSQSLSITCTVSGFSLPNYGVHWVRQPPGKGLEWLGVIWSGGNTDYNTVFKARLSITKDNSKSQVFFKMNSLQADDTAIYYCARNLYGNYDYAMDYWGQGTSVTVSS VL: DIVMTQSPATLSVTPGDRVSLSCRASQSISDYLHWYQQKSHESPRLLIKYASQSISGIPSRFSGSGSGSEFTLSINSVEPEDVGVYYCQNGHSFPFTFGSGTKLEIK"
  Attribute measured: "CDC % Relative activity"
  Unit spec: "%"
  Readout value: 3.42
- Binder: "407E11H8 (antibody, V domains shown) VH: DVQLVESGGGLVQPGGSRKLSCAASGFTFSDFGMHWIRQTPEKGLEWVAYISSGSRPIYYADTVKGRFTISRDNPKNTLFLQMTSLRSEDTAMYFCVRFYFGNSFDHWGQGTLVTVSA VL: DIVMTQSPSFLTVTAGEKVTMTCRSSQNLLNSGNLKNYLTWYQQKPGQPPKLLISWASTRESGVPDRFTGSGSGTDFTLTISSVQPEDLALYYCQNAYSFPLTFGAGTKLELK"
  Attribute measured: "CDC % Relative activity"
  Unit spec: "%"
  Readout value: 60.4
